Protocol details: soluble on expression in E. coli; label from the status in PepcDB or PDB records

| Chain | soluble on expression in E. coli |
| --- | --- |
| MAEKSYTRFVINGKEQELKFCLQALRLLDENGGPMQFVSQTMQGGITNFTDVVYYALIHTNEGITYEAVQKEIENMFNAEKLDLDEILKYNKAVVLNSFFFQKTVKKLLGTMTAEQQKSFENLYA | not soluble |
| MGSDKIHHHHHHMEIVFVYDAVYPWTKGGVERRLHEVGRRLSNEHNVKWLCVGWWGKEKRIQEGVELIPVCKAQQLYSRGRRTIREAMIFAASLLKKSRIKADVIDCQVFPYLSVFPFATRKELVLTWHEFWGDYWYEYLGKAGFFGKAVERIVAKLKARTIAVSETTRKALESLGIRATVIPNGVDFPRISEIPASSEEWDVIFVGRLIREKNLELLFDAMKLLPELNCLVVGDGPERERLSKIAPANVDFGGSLGYEEVISMMKSSKVFAIPSRREGFGISALEANACGLPVVTIRHQMNAVVEIAEKTGFVAEPHARDFAEKIRLALEMRREMREKCINFAKNFDWEVIARRLEEFYEGVHSPPNEGRAE | not soluble |

###

Protocol details: soluble on expression in E. coli; label from the status in PepcDB or PDB records

| Chain | soluble on expression in E. coli |
| --- | --- |
| LTARFTNTELNGYQRLMSYFEEMVKVEDDVCNANKCLLVKLSAEVSDLSEPMRIALRRGADKTIQAMAECIDVGIQDGSIPSGDSALLARQIYYLWNGASLLNKLYQDQEALTQSLTYTQHLLQNTRTCP | not soluble |
| MNYLEGVGSKKGGGGIASESQFNLQRRKEVESLLSKGENVPYTFQDEKDDQVRSNPYIYKNHSGKLVCKLCNTMHMSWSSVERHLGGKKHGLNVLRRGISIEKSSLGREGQTTHDFRQQQKIIEAKQSLKNNGTIPVCKIATVKNPKNGSVGLAIQVNYSSEVKENSVDSDDKAKVPPLIRIVSGLELSDTKQKGKKFLVIAYEPFENIAIELPPNEILFSENNDMDNNNDGVDELNKKCTFWDAISKLYYVQFFFKQAEQEQADV | soluble |
| MNLDYLKETYHLTKTESQILYYLDQQSTNAADLSIREVAKHCFSSPSSIIRLAKKLNLSGYNELIYKLKEAHFSQPIPFETAPSFETTNEFCRLLAKHKSHLFVILGHDFSRHLAAYISEVFNFHGIPSITTAYTHSINSQNNQNFLFIILSHSGEEKYLKETALLAKEKKHPIISFVGAKNSTLGRLADLVFSTDSYSPFSTSVAQPQMFFGQTLITFEALICAYLNHEDSIPISHKNK | not soluble |
| MSLVRDIKTFKFFEVLLIYEMLEVLKALAMMNATRKVVKISSKELAEHIGQSLQTAARKLKELEDEGLIDRTLTKDGQFVVITEKGKQLLYKEYMDYKKIFDDEGTIKIKGEVFSGVGEGRYYVSLEGYRKQFREKLGFDPYPGTLNLRIPKEEMYFRRRLDEERGILIEGFSTEDRTFGEVKAFKCRINGIEGAIVIPKRTHYPAEILEVISPVKLRDKLGLKDGDFVEVEVILEGHHHHHH | soluble |
| MAHHHHHHMRVASFCLPLHLLSFGAQARGCFRHSTGGSSSVFCAARPFRLSHTMAASACSSAVHLDNFRLLAAGHDATHAAPSSAPLTAPISFSLTFHFQRYDGADFESFISSLGVSVDFVADVASEQTTLTLLPLTPVSGPWARRDTAAANGAFLMAASASDSSTSSSDYAAGAPLDGAAGAAPGMMYQLRVYLSDFRALEKVQLKHLLQVSMMHVRLAHLGTSDGVGNSDSSDPRTEERSVAAWNVIWRVRRNPQNEQELIRTVLDPLA | not soluble |
| MGHHHHHHSHMSQQRPDRIKQMLHYLWQHRHLSTQQAMELFGYAEATVRRDFQYIVNQYPGMIRGHGCLDFDDSTDDKEYVFDVKRTLQSVAKREIAALARTMIKDGDCFFLDSGSTCLELAKCLADARVKVICNDIKIANELGCFPHVESYIIGGLIRPGYFSVGESLALEMINAFSVERAFISCDALSLETGITNATMFEVGVKTRIIQRSREVILMADHSKFDAVEPHAVATLSCIKTIISDSGLPETIAQRYQRAGCQLFLPHSIK | soluble |

###

Protocol details: soluble on expression in E. coli; label from the status in PepcDB or PDB records

| Chain | soluble on expression in E. coli |
| --- | --- |
| MGSDKIHHHHHHSPTTTVTTTDASVTTTPPTTTPPTTAVVTDCTTCTAALITLTQGTDGAVDATPVEGVDATGCATITYTCENTPVDAQNVIFLTFYGGGIDRGVDQGTGSLNVLLNCVDGAWVRGGLVIDEILCQVI | not soluble |
| MHHHHHHHHHHISSASGESQMSLDEIEDVYHTRPGYRPEEYRWGQGGAKIIDYHIQSAGVDFPPSLTGNQQTDFLMKVVFEYDFDCVVPGILIKTLDGLFLYGTNSFLASEGRENISVSRGDVRVFKFSLPVDLNSGDYLLSFGISAGNPQTDMTPLDRRYDSIILHVTKSMDFWGVIDLKSSFTSYQ | soluble |
| MTLHKPTQAVPCRAPKVGRLIYTAGGYFRQSLSYLEAYNPSNGSWLRLADLQVPRSGLAGCVVGGLLYAVGGRNNSPDGNTDSSALDCYNPMTNQWSPCASMSVPRNRIGVGVIDGHIYAVGGSHGCIHHSSVERYEPERDEWHLVAPMLTRRIGVGVAVLNRLLYAVGGFDGTNRLNSAECYYPERNEWRMITPMNTIRSGAGVCVLHNCIYAAGGYDGQDQLNSVERYDVETETWTFVAPMRHHRSALGITVHQGKIYVLGGYDGHTFLDSVECYDPDSDTWSEVTRMTSGRSGVGVAVTMEPCRKQIDQQNCTCY | soluble |
| MSKTTQSRETTLAGHPVEYEVRRSEDATEPRIDIDIRGVTVVLPAESEESPEALLSENLNWVLETKRTYERHRERAPERRFEPGAAFPYLGDDHEIVVEPRPAHGVGDGEIRLRQSTVDQSSLKRVLENFYRSRAREHLTDRTDALADSMNHTYDRIELRNQRTRWGSCSTNGVLSFNWRLVMAPPDVIDYVVVHELAHLRESGHNDRFWRLVEMEIPEYRELSDWLDTNSVDLIFSKDDLLEHHHHHH | soluble |
| MPMFNTLTSLFKQLLEGQDLAQHSATPELAIACLLSEVAGADQQISAPEQQAKLALLQHLLQCTAEQASDLLMRAEQEVKQSASLYDFTSQLRSLSQTQRFELIKAMWEVANADGTIDPLEDAVIRKAAELLYVDHSQFIRAKLMAADKHQSPE | not soluble |
| MGMPEEALKIYQELLEIEKELGNEREIALTLANIAVVKDELGEADEAIKLMSEAKDIFEKINDTKNYHIALIDLAHFYYELGEYEKAMQIIEEVLRNPLDDEIEVHGRLVESEIHSALENYKKAALSLRNALLRSGDDEYLFETAFEAVLEFIEELYNEEKLEHHHHHH | not soluble |
| MSLTQVRQTDSGDSLETARPADLLVLLDSLRQREATLNAEVIDLQNTLNALQASGNTDQAALESAQARLAALSILVGAVGATGPGVMITIDDPGPGVAPEVMIDVINELRAAGAEAIQINDAHRSVRVGVDTWVVGVPGSLTVDTKVLSPPYSILAIGDPPTLAAAMNIPGGAQDGVKRVGGRMVVQQADRVDVTALRQPKQHQYAQPVKEGHHHHHH | soluble |
| GAKQLSTARKFKMITGKDLFQQQKAMDTELKKEDGEITDLMEFVQYGLYLALFQDNIVKAKSDFSDFRSSFEFDTDGKGLKELVELWQKEI | soluble |

###

Protocol details: soluble on expression in E. coli; label from the status in PepcDB or PDB records
Property label: soluble on expression in E. coli

| Chain | Property label | Result value |
| --- | --- | --- |
| MAAYQVLIVGAGFSGAETAFWLAQKGVRVGLLTQSLDAVMMPFLPPKPPFPPGSLLERAYDPKDERVWAFHARAKYLLEGLRPLHLFQATATGLLLEGNRVVGVRTWEGPPARGEKVVLAVGSFLGARLFLGGVVEEAGRLSEASYPDLLEDLSRLGFRFVEREGEVPETPSTPGYRVRYLAFHPEEWEEKTFRLKRLEGLYAVGLCVREGDYARMSEEGKRLAEHLLHELG | soluble on expression in E. coli | soluble |
| GFTPHDSAPYGALDMADFEFEQMFTDALGIDEYGG | soluble on expression in E. coli | soluble |
| MELAKKTGATVIGSAEMADYLSSYHGVENVHGMNIGGKANFDFGSVKFVQAFHSSSFTHENGIPVYLGMPMGIVFEVEGKTIYHTGDTGLFSDMSLIAKRHPVDVCFVPIGDNFTMGIDDASYAINEFIKPKISVPIHYDTFPLIEQDPQQFKDAVNVGDVQILKPGESVQFLEHHHHHH | soluble on expression in E. coli | not soluble |
| HHSVEAPQVKKRMGKFPFVKASKKESEEISKQLHNALDIELPSESTVWLRDKDVWLFPDALEPMIGELRFSRMGIKIAEAHKNGYRWQHQVATALATGAESNAIELTIEEAREWYMGRDVRPQIIPEGLKTGKGEVLVKYQGAIIGLGKWVSNRIKNGLPRELVRDKNLF | soluble on expression in E. coli | not soluble |
| MMPNEKITLKQLIDHCFDTTKTTIKQQIVFGAGKIENKNFNIVGTVEDTSFGVDESIEMARCILDIIKNNNTDPIVLLTDVAGQKLAVRDEWLGMYAYFAHLLKCLHLARQNGNKIITLIYNQAIGGSFIAFGMMADRIYALKNAKLAVMWLEGMSKVTKIDIDVLRKISETSPVFAPGVENFKKLGGLHQVLDLDEVSQQLLLTLQEPNISHDNRAELGKQYGGRKEAYDIIKAIENL | soluble on expression in E. coli | not soluble |
| MNGESDCATCTISGAKLGNALGAIWTFVHTMEQGDVVLVRHGAWLSIGIIGPYRYVKHLDNDIYGFCHQRSVEWKIINENVRLYNEKVHETLRHPGVVTKSKYTVHELQLGIEW | soluble on expression in E. coli | not soluble |
| MEMKGINNIRIDDRLIHGQVATMWSNKLGVTRLMVVNDNVAKNDLQKQVLRMAVPAGISSSIITEETAISNIKNGKYEGQNVLMIVKSPVDLLPFIENDLEIKRINVGNMSNRNNTTVLRPNISVTDEERSAFEKLLSRDIEITTIMTPDDKKTFLKDIL | soluble on expression in E. coli | not soluble |
| MRFLHTADWQLGMTRHFLNGEAQPRYSASRREAVASLGEIAKRTGAEFVVVSGDVFEHNQLAPRDVSQSLEAMRAIGVPVYLLPGNHDPLDASSVYTSALFVAERPDNVVVLDRAGVHEVRPGVQIVAAPWRSKAPTSDLIGDVLADLPADGVTRVLVGHGGVDILDPDKNKPSLIRMAAVEDALARGAVHYVALGDKHSRTEVGGSGRVWYSGSPEVTNYDDIESDPGHVLVVDIDENDARRAVRVESEKVGRWRFVTLRRSVDTDRDIADLDLNLDLLDDKERTVVRLALTGSLTVTDKAKLDECLDRYARLFAALTTWERLEHHHHHH | soluble on expression in E. coli | not soluble |
